target: UniProt Q16790
For each entry below, report its pKi value.
Answers are plain numbers, as −log10 of the molar value.

Field: example entries. Status: answers known.
chemicalsmiles=NS(=O)(=O)c1ccc(/N=C/c2cc(Br)cc(Br)c2O)cc1 observedresult=6.44
chemicalsmiles=NS(=O)(=O)c1ccc(/N=C/c2cc(Cl)cc(Cl)c2O)cc1 observedresult=7.45
chemicalsmiles=NS(=O)(=O)c1ccc(/N=C/c2cc(Br)ccc2O)cc1 observedresult=6.59
chemicalsmiles=CN(C)c1ccc(CNc2ccc(S(N)(=O)=O)cc2)cc1 observedresult=8.62
chemicalsmiles=COc1ccc(CNc2ccc(S(N)(=O)=O)cc2)cc1 observedresult=8.66

The following compounds each have a reported value; give each one's pKi.
1. NS(=O)(=O)c1ccc(NCc2cc(Cl)cc(Cl)c2O)cc1
2. COc1ccc(/C=N/c2ccc(S(N)(=O)=O)cc2)cc1
3. NS(=O)(=O)c1ccc(NCc2ccc(OCc3ccccc3)cc2)cc1
4. NS(=O)(=O)c1ccc(NCc2cc(Br)cc(Br)c2O)cc1
5. CN(C)c1ccc(/C=N/c2ccc(S(N)(=O)=O)cc2)cc1
6. Cc1cccc(CNc2ccc(S(N)(=O)=O)cc2)c1O

Result:
1: 8.66; 2: 6.05; 3: 8.60; 4: 8.64; 5: 7.38; 6: 8.64
